Overview of reported Tmax across a group of molecules:
Assay Comment: Tmax in BALB/C mouse at 10 mg/kg, po measured upto 24 hrs by LC-MS analysis
Format: ADME, organism-based
Assay Setup: in vivo
Quantity Kind: Tmax

[
  {
    "Chemical Smiles": "C[C@H](Nc1nc(N)nc(N)c1C#N)c1cc2ccc(F)cn2c(=O)c1-c1ccccc1",
    "Quantity Kind": "Tmax",
    "Obs Value": "30 min"
  },
  {
    "Chemical Smiles": "C[C@H](Nc1nc(N)nc(N)c1C#N)c1c(-c2ccccc2)c(=O)n2cc(F)ccc2c1C1CC1",
    "Quantity Kind": "Tmax",
    "Obs Value": "60 min"
  },
  {
    "Chemical Smiles": "C[C@H](Nc1nc(N)nc(N)c1C#N)c1cc(=O)n2cc(F)ccc2c1-c1cc(F)cc(F)c1",
    "Quantity Kind": "Tmax",
    "Obs Value": "30 min"
  },
  {
    "Chemical Smiles": "C[C@H](Nc1nc(N)nc(N)c1C#N)c1c(-c2ccccc2)c(=O)n2cc(F)ccc2c1-c1ccc(F)cc1",
    "Quantity Kind": "Tmax",
    "Obs Value": "60 min"
  },
  {
    "Chemical Smiles": "C[C@H](Nc1ncnc2[nH]cnc12)c1nc2cccc(Cl)c2c(=O)n1-c1ccccc1",
    "Quantity Kind": "Tmax",
    "Obs Value": "4.98 min"
  },
  {
    "Chemical Smiles": "Cc1c([C@H](C)Nc2nc(N)nc(N)c2C#N)c(-c2ccccc2)c(=O)n2cc(F)ccc12",
    "Quantity Kind": "Tmax",
    "Obs Value": "30 min"
  }
]
